The reported numbers originate from the supplement of paper PMC8728848.

# Lookup of reported glycan array binding signal (z-score) keyed by entry
# studyTarget: Gal(b1-4)GlcNAc(b1-3)Gal(b1-4)GlcNAc(b1-3)Gal(b1-4)GlcNAc(b1-3)Gal(b1-4)GlcNAc(b1-3)Gal(b1-4)GlcNAc(b1-2)Man(a1-3)[Gal(b1-4)GlcNAc(b1-3)Gal(b1-4)GlcNAc(b1-3)Gal(b1-4)GlcNAc(b1-3)Gal(b1-4)GlcNAc(b1-3)Gal(b1-4)GlcNAc(b1-2)Man(a1-6)]Man(b1-4)GlcNAc(b1-4)[Fuc(a1-6)]GlcNAc
# testDetails: glycan array binding signal (z-score within array); higher = stronger binding
# runConditions: glycan notation: IUPAC condensed, linker removed
Shown is part of a subset that was picked to be rich in the strongest signals.
Kindly provide the number alone.

Here's what some known entries look like.
{"binder": "KISKRILTGKK [NK11 (Sus scrofa)]", "glycan array binding signal (z-score)": -0.483}
{"binder": "Threefoil (Haloarcula marismortui) (protein) GSSHHHHHHHHHHSSGLVPRGSHMGDGYYKLVARHSGKALDVENASTSDGANVIQYSYSGGDNQQWRLVDLGDGYYKLVARHSGKALDVENASTSDGANVIQYSYSGGDNQQWRLVDLGDGYYKLVARHSGKALDVENASTSDGANVIQYSYSGGDNQQWRLVDL", "glycan array binding signal (z-score)": 2.83}
{"binder": "cFel (Cyprinus carpio), P68512 (protein) LDCTVIDGNLKQIDAGSGSVVGVNNLNETFVLIDNVFTKISGSLKHFSVGPAGQLGVNTANNIFKYQSGGFVQLAGLLKQVDAGGDQIIAGVNMYDDIYCLNMDANNKWPSSNTPWVQINGKLKYYSCGPYSCWGVNSNDQIFIMKDVSSNVCSGSGSFINIPGLLSMIEVATDGSVFGVNSQGNLYQRTGVTRSKPDGTDWISMVACPNGHKHVSFDLGVLWLVCVDGSIRKCILTD", "glycan array binding signal (z-score)": 1.98}

We next turn to a different binder, shown below.
Entry HPA (Helix pomatia), Q575S3 (protein) MWAHLTGLLLICALSLSAAQRAQTGEIDCGSDSSWPKDPSDNPNRDNTREIVKHVTFSPQFCREPKVILSVTTLDAEHTKNLRYEARLKSVSPSGLSASCYSWHDGTIYRMKLSWLAVED — recorded glycan array binding signal (z-score) = -0.253
